Test: folding stability dG unfold from trypsin proteolysis; higher = more stable
The sequences listed here are annotated with their folding stability dG unfold.
readoutLabel: folding stability dG unfold (kcal/mol)

itemsequence="MYTIEVEVSTEPNPNTTTVTVRITSDDGTPVPEEVVKEAAEKIKKSGYPIDELEVKPLPDGSVEVTLKYSSS [r1_408_JUSTAS]" unitofmeasurement=kcal/mol testresult=3.31
itemsequence="SAGGPYMEIQFPMPEDQVRPALEKAADEWGMEVKEINYHPNNGMVTITVNDNMPPNRIRKAIEKVLKSAGGS [r8_338_TrROS]" unitofmeasurement=kcal/mol testresult=-0.784
itemsequence="SAGPEVVVFKGIEVEVTEVPPELLENLPPDVIAIPFGDRVLLIRVREYDVARFPPIPPLGANPETGELSSAG [r14_126_TrMRF]" unitofmeasurement=kcal/mol testresult=2.17
itemsequence="SAGGAEEARKAGRPVLLTVTVTAPGSGKVSTLPLLVPADRPVDVEALVAALFPADWAVTVSVSPVGGSAGGS [r8_127_JUSTAS]" unitofmeasurement=kcal/mol testresult=1.32
itemsequence="SAGGGLALRLEVETERVEREVFDADGRLVAREEVEVRRVRLELVPLPPAPPPPTVTVRPGDPRDPRLRSAGG [r13_508_TrROS_Hall]" unitofmeasurement=kcal/mol testresult=1.53
itemsequence="SAGGSAGGSMTVERNVTSEEEAEEWREEIEKELGVKVEEVIREETEEGDLRVKFVIEIPEDLKSAGGSAGGS [r12_577_JUSTAS]" unitofmeasurement=kcal/mol testresult=0.37
itemsequence="SAGGSAGGSDVTVTEYDVTLTVDVTFTAPDANGNPVTTTTPVTIPLKVTVFDFGTARLVVVEGSAGGSAGGS [r20_58_TrMRF]" unitofmeasurement=kcal/mol testresult=2.86
itemsequence="SAGGSAGGSAGMMEEKLIKEYEDPNGGKKYTIKLVKDPKTGKEKIVKETIEPNKKTTEIKNLSAGGSAGGSA [r18_444_JUSTAS]" unitofmeasurement=kcal/mol testresult=-0.36
itemsequence="SAGGSMTAEELAEELAARHPDATVERSPSGVVTFRLPATGLTVTVSSGAGELRITVEDPTVPRRTLESAGGS [r16_478_JUSTAS]" unitofmeasurement=kcal/mol testresult=0.0944
itemsequence="SAGGSAGGSAGGKKVTITLKDANGKELKIEVKEGEEVTIEVGGKKYKLTVKDGKIELKPVSAGGSAGGSAGG [r7_510_TrROS_Hall]" unitofmeasurement=kcal/mol testresult=4.03
itemsequence="SAGGSAGGSAGTVTVDPEKGVVYVPLPEPISPEEVIEKRKEPELDVKILSVGENVAVILVSAGGSAGGSAGG [r17_323_JUSTAS]" unitofmeasurement=kcal/mol testresult=0.493
itemsequence="SITITRDPDYYTLRIPPGMDSVEEVQDFLKELGFKLPPGVKDIQVEEVDKENNQVTITIQLDDPEAIQDLSA [r9_820_TrROS]" unitofmeasurement=kcal/mol testresult=0.601
itemsequence="SAGGKIKVTVEKEENGTYRVTVEITLPDGKKITITVTVPPGVKTEEEAKKLAEEKVKELLKKLGIKPSAGGS [r8_464_TrROS_Hall]" unitofmeasurement=kcal/mol testresult=3.72
itemsequence="SGSSLLSETTEFVELPDDTFATVSTSTYYIPGSGEIVTKTTVTIYPPTGPPVTTTYTSTTTPEGVLVTESSA [r9_856_JUSTAS]" unitofmeasurement=kcal/mol testresult=2.38
